test: WST-1 cytotoxicity test, PANC-1; type: cell-based; settings: human, PANC-1 cells; PANC-1, 100 µM, 48 h, WST-1, mean ± SD of three experiments; read-out: relative viability (%) compared to untreated control
Outcome Measure: viability at 48 h, 100 µM (%)
Supply the numeric figure in %, leaving out any unit text.

Study these solved cases before continuing.
Cl.Cl.Cl.OCCN1CCN(CC(O)CNc2ccccc2)CC1 (centres unmarked) :: 111
Cl.Cl.Cl.OCCN1CCN(CCCNc2ccccc2)CC1 :: 115
Cl.Cl.Cl.OCCN1CCN(CCCNc2cccc3ccccc23)CC1 :: 111
Cl.Cl.OC(CNc1ccccc1)CNc1ccccc1 :: 118
COc1ccc2nc3c(c(NCCN4CCN(CCO)CC4)c2c1)CCCC3.Cl.Cl.Cl :: 30
COc1ccc(NCCCN2CCN(CCO)CC2)cc1.Cl.Cl.Cl :: 116
Cc1cc(OCC(O)CN2CCN(CCO)CC2)ccc1Cl.Cl.Cl (centres unmarked) :: 111

Problem: Give a short answer stating reported viability at 48 h, 100 µM for OCCN1CCN(CC(O)CN2CCN(CCO)CC2)CC1 .
Result: 117

---

experiment: WST-1 cytotoxicity test, SAOS-2; format: cell-based; conditions: human, SAOS-2 cells; SAOS-2, 10 µM, 48 h, WST-1, mean ± SD of three experiments; read-out: relative viability (%) compared to untreated control
As shown below, each of these compounds has a reported viability at 48 h, 10 µM value.
Supply the numeric figure in %, leaving out any unit text.

Study these solved cases before continuing.
Cl.Cl.Cl.OCCN1CCN(CCCNc2ccccc2)CC1 [Compound 5] :: 96
Cl.Cl.Cl.OCCN1CCN(CCCNc2cccc3ccccc23)CC1 [Compound 6] :: 94
Cl.Cl.Cl.OCCN1CCN(CC(O)CNc2ccccc2)CC1 (stereo not drawn) [Compound 10] :: 97
COc1ccc(NCCCN2CCN(CCO)CC2)cc1.Cl.Cl.Cl [Compound 7] :: 102
COc1ccc2nc3c(c(NCCN4CCN(CCO)CC4)c2c1)CCCC3.Cl.Cl.Cl [Compound 3] :: 80
Cc1cc(OCC(O)CN2CCN(CCO)CC2)ccc1Cl.Cl.Cl (stereo not drawn) [Compound 4] :: 99
Cl.Cl.OC(CNc1ccccc1)CNc1ccccc1 [Compound 9] :: 106
COc1ccc2nc3c(c(NCCN4CCNCC4)c2c1)CCCC3.Cl.Cl.Cl [Compound 2] :: 28

Problem: Give a short answer stating reported viability at 48 h, 10 µM for OCCN1CCN(CC(O)CN2CCN(CCO)CC2)CC1 [Compound 8] .
Result: 102

---

assay: WST-1 cytotoxicity test, HeLa; type: cell-based; details: human, HeLa cells, 100 µM, 48 h, WST-1, mean ± SD of three experiments, read-out: relative viability (%) compared to untreated control
Outcome Measure: viability at 48 h, 100 µM
In your response, put the unit directly after the numeric value.

Study these solved cases before continuing.
Cc1cc(OCC(O)CN2CCN(CCO)CC2)ccc1Cl.Cl.Cl (stereo not drawn) :: 137%
Cl.Cl.OC(CNc1ccccc1)CNc1ccccc1 :: 90%

Problem: Give a short answer stating reported viability at 48 h, 100 µM for Cl.Cl.Cl.OCCN1CCN(CCCNc2cccc3ccccc23)CC1 .
Result: 104%

---

experiment: WST-1 cytotoxicity test, HeLa; type: cell-based; conditions: human, HeLa cells, 100 µM, 48 h, WST-1, mean ± SD of three experiments, read-out: relative viability (%) compared to untreated control
As shown below, each of these compounds has a reported viability at 48 h, 100 µM value.
In your response, put the unit directly after the numeric value.

Cl.Cl.Cl.OCCN1CCN(CCCNc2ccccc2)CC1 :: 116%
COc1ccc2nc3c(c(NCCN4CCN(CCO)CC4)c2c1)CCCC3.Cl.Cl.Cl :: 11%
OCCN1CCN(CC(O)CN2CCN(CCO)CC2)CC1 :: 100%

Problem: Give a short answer stating reported viability at 48 h, 100 µM for Cl.Cl.Cl.OCCN1CCN(CC(O)CNc2ccccc2)CC1 (centres unmarked) .
Result: 121%

Problem: Give a short answer stating reported viability at 48 h, 100 µM for COc1ccc(NCCCN2CCN(CCO)CC2)cc1.Cl.Cl.Cl .
Result: 132%

---

experiment: WST-1 cytotoxicity test, A549; assay type: cell-based; conditions: human, A549 cells; A549, 10 µM, 48 h, WST-1, mean ± SD of three experiments; read-out: relative viability (%) compared to untreated control
Outcome Measure: viability at 48 h, 10 µM (%)
Supply the numeric figure in %, leaving out any unit text.

Study these solved cases before continuing.
Cl.Cl.Cl.OCCN1CCN(CCCNc2ccccc2)CC1 [Compound 5] :: 86
Cc1cc(OCC(O)CN2CCN(CCO)CC2)ccc1Cl.Cl.Cl (stereo not drawn) [Compound 4] :: 100
OCCN1CCN(CC(O)CN2CCN(CCO)CC2)CC1 [Compound 8] :: 97
Cl.Cl.Cl.OCCN1CCN(CCCNc2cccc3ccccc23)CC1 [Compound 6] :: 103

Problem: Give a short answer stating reported viability at 48 h, 10 µM for Cl.Cl.Cl.OCCN1CCN(CC(O)CNc2ccccc2)CC1 (stereo not drawn) [Compound 10] .
Result: 105

Problem: Give a short answer stating reported viability at 48 h, 10 µM for COc1ccc2nc3c(c(NCCN4CCNCC4)c2c1)CCCC3.Cl.Cl.Cl [Compound 2] .
Result: 27

Problem: Give a short answer stating reported viability at 48 h, 10 µM for COc1ccc(NCCCN2CCN(CCO)CC2)cc1.Cl.Cl.Cl [Compound 7] .
Result: 95

Problem: Give a short answer stating reported viability at 48 h, 10 µM for Cl.Cl.OC(CNc1ccccc1)CNc1ccccc1 [Compound 9] .
Result: 107

Problem: Give a short answer stating reported viability at 48 h, 10 µM for COc1ccc2nc3c(c(NCCN4CCN(CCO)CC4)c2c1)CCCC3.Cl.Cl.Cl [Compound 3] .
Result: 94

---

tested on: BALB/c mice; experiment: Safe use evaluation in vivo (MTD, symptoms, blood biochemistry, histopathology); set-up: key: + (mild); ++ (moderate); +++ (severe); settings: male mice, at MTD i.p., animals 1 and 2
Outcome Measure: hyper/hypoventilation

Study these solved cases before continuing.
Cc1cc(OCC(O)CN2CCN(CCO)CC2)ccc1Cl.Cl.Cl (centres unmarked) :: +
Cl.Cl.Cl.OCCN1CCN(CCCNc2ccccc2)CC1 :: ++
COc1ccc(NCCCN2CCN(CCO)CC2)cc1.Cl.Cl.Cl :: ++
Cl.Cl.Cl.OCCN1CCN(CCCNc2cccc3ccccc23)CC1 :: ++

Please find the next molecule below.
Problem: Give a short answer stating reported hyper/hypoventilation for Cl.Cl.Cl.OCCN1CCN(CC(O)CNc2ccccc2)CC1 (centres unmarked) .
Result: +

---

test system: BALB/c mice; test: Safe use evaluation in vivo (MTD, symptoms, blood biochemistry, histopathology); design: key: + (mild); ++ (moderate); +++ (severe); conditions: male mice, at MTD i.p., animals 1 and 2
Outcome Measure: tremor

Study these solved cases before continuing.
Cl.Cl.Cl.OCCN1CCN(CCCNc2ccccc2)CC1 :: ++
OCCN1CCN(CC(O)CN2CCN(CCO)CC2)CC1 :: +
COc1ccc(NCCCN2CCN(CCO)CC2)cc1.Cl.Cl.Cl :: ++
Cl.Cl.Cl.OCCN1CCN(CCCNc2cccc3ccccc23)CC1 :: +

Please find the next molecule below.
Problem: Give a short answer stating reported tremor for Cl.Cl.Cl.OCCN1CCN(CC(O)CNc2ccccc2)CC1 (centres unmarked) .
Result: +

---

assay: WST-1 cytotoxicity test, SAOS-2; format: cell-based; conditions: human, SAOS-2 cells; SAOS-2, 100 µM, 48 h, WST-1, mean ± SD of three experiments; read-out: relative viability (%) compared to untreated control
Outcome Measure: viability at 48 h, 100 µM (%)
Supply the numeric figure in %, leaving out any unit text.

Study these solved cases before continuing.
OCCN1CCN(CC(O)CN2CCN(CCO)CC2)CC1 [Compound 8] :: 87
COc1ccc2nc3c(c(NCCN4CCN(CCO)CC4)c2c1)CCCC3.Cl.Cl.Cl [Compound 3] :: 10

Please find the next compound below.
Problem: Give a short answer stating reported viability at 48 h, 100 µM for COc1ccc(NCCCN2CCN(CCO)CC2)cc1.Cl.Cl.Cl [Compound 7] .
Result: 109

---

As shown below, each of these compounds has a reported viability at 48 h, 100 µM value.
assay: WST-1 cytotoxicity test, A549; type: cell-based; details: human, A549 cells; A549, 100 µM, 48 h, WST-1, mean ± SD of three experiments; read-out: relative viability (%) compared to untreated control
Supply the numeric figure in %, leaving out any unit text.

Study these solved cases before continuing.
OCCN1CCN(CC(O)CN2CCN(CCO)CC2)CC1 [Compound 8] :: 111
Cl.Cl.Cl.OCCN1CCN(CCCNc2cccc3ccccc23)CC1 [Compound 6] :: 93

Please find the next compound below.
Problem: Give a short answer stating reported viability at 48 h, 100 µM for COc1ccc(NCCCN2CCN(CCO)CC2)cc1.Cl.Cl.Cl [Compound 7] .
Result: 115
